experiment: in vivo
condition: Taconic nude, mouse, in vivo, iv, % ID/org Muscle
propertyLabel: tissue uptake dose at 1 h

Q. Look at this molecule and give its reported tissue uptake dose at 1 h. NC(=O)[C@@H](CCCCNC(=O)CNC(=O)CCC(=O)NCCc1c[nH]cn1)NC(=O)[C@@H](Cc1ccc(O)cc1)NC(=O)[C@@H](CCCCNC(=O)CNC(=O)CCC(=O)NCCc1c[nH]cn1)NC(=O)Cc1ccc(CN2CCN(CC(=O)O)CCN(CC(=O)O)CC2)cc1 [Al^18F(IMP485)]
A. 0.012 %ID

* * *

experiment: Biodistribution of Al^18F(IMP485) alone or TF2 pretargeted
condition: nude (Taconic), mouse, in vivo, iv, 28 uCi, total radioactivity, % ID/org Sm. Int., alone, 1 h post injection
Method: Mice were necropsied at 1 and 3 h post injection, 7 mice per time point. Biodistribution studies were performed in Taconic nude mice bearing subcutaneous LS174T tumor xenografts. Mice were necropsied at 1 and 3 h post injection, 6 mice per time point.
propertyLabel: tissue uptake dose at 1 h (%ID)
Hi! Could you send only the number? It should be in %ID, unit omitted.

Q. Item under review: NC(=O)[C@@H](CCCCNC(=O)CNC(=O)CCC(=O)NCCc1c[nH]cn1)NC(=O)[C@@H](Cc1ccc(O)cc1)NC(=O)[C@@H](CCCCNC(=O)CNC(=O)CCC(=O)NCCc1c[nH]cn1)NC(=O)Cc1ccc(CN2CCN(CC(=O)O)CCN(CC(=O)O)CC2)cc1 [Al^18F(IMP485)] . Reported tissue uptake dose at 1 h?
A. 0.353

* * *

experiment: in vivo
condition: Taconic nude, mouse, in vivo, iv, % ID/g Muscle
propertyLabel: tissue uptake at 3 h (%ID/g)
Provide the reading as a plain figure in %ID/g.

Q. If you can, please state the reported tissue uptake at 3 h value of NC(=O)[C@@H](CCCCNC(=O)CNC(=O)CCC(=O)NCCc1c[nH]cn1)NC(=O)[C@@H](Cc1ccc(O)cc1)NC(=O)[C@@H](CCCCNC(=O)CNC(=O)CCC(=O)NCCc1c[nH]cn1)NC(=O)Cc1ccc(CN2CCN(CC(=O)O)CCN(CC(=O)O)CC2)cc1 [Al^18F(IMP485)] .
A. 0.025

* * *

experiment: in vivo
condition: nude, mouse, in vivo, iv, total radioactivity, % ID/org Stomach
propertyLabel: tissue uptake dose at 1 h

Q. I have this molecule here, NC(=O)[C@@H](CCCCNC(=O)CNC(=O)CCC(=O)NCCc1c[nH]cn1)NC(=O)[C@@H](Cc1ccc(O)cc1)NC(=O)[C@@H](CCCCNC(=O)CNC(=O)CCC(=O)NCCc1c[nH]cn1)NC(=O)Cc1ccc(CN2CCN(CC(=O)O)CCN(CC(=O)O)CC2)cc1 [Al^18F(IMP485)] , and I need its recorded tissue uptake dose at 1 h.
A. 0.265 %ID

* * *

experiment: Biodistribution of Al^18F(IMP485) alone or TF2 pretargeted
condition: nude, mouse, in vivo, iv, 28 uCi, total radioactivity, % ID/org Scapula, alone, 3 h post injection
propertyLabel: tissue uptake dose at 3 h (%ID)
State the answer as a number, implicitly in %ID.

Q. I have this molecule here, NC(=O)[C@@H](CCCCNC(=O)CNC(=O)CCC(=O)NCCc1c[nH]cn1)NC(=O)[C@@H](Cc1ccc(O)cc1)NC(=O)[C@@H](CCCCNC(=O)CNC(=O)CCC(=O)NCCc1c[nH]cn1)NC(=O)Cc1ccc(CN2CCN(CC(=O)O)CCN(CC(=O)O)CC2)cc1 [Al^18F(IMP485)] , and I need its recorded tissue uptake dose at 3 h.
A. 0.006

# credit: patent US20160199524A1
